# Assay system: T1, human B7-H4 on the cell surface (human, UniProt Q7Z7D3 25-282)
# T1 sequence: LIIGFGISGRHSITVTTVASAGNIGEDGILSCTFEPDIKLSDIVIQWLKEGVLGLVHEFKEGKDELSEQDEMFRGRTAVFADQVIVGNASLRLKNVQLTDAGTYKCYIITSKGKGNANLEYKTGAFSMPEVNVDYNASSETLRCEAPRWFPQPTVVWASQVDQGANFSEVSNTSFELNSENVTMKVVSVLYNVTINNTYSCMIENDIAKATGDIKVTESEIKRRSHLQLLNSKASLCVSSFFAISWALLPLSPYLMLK
# Assay procedure: cell-based or functional assay
I'd be grateful if you could share measured Donor 4 Max IFNγ for these entries.
Answers are plain numbers, in pg/mL.

Reference set (2 entries):
| Binder | Readout kind | Readout number |
| --- | --- | --- |
| B7-H4 antibody 20500 (antibody, human IgG1, kappa, V domains shown, human IgG1/kappa) VH: QLQLQESGPGLVKPSETLSLTCTVSGGSIKSGSHYWGWIRQPPGKGLEWIGNIYYSGSTYYNPSLRSRVTISVDTSKNQFSLKLSSVTAADTAVYYCAREGSYPNWFDPWGQGTLVTVSS VL: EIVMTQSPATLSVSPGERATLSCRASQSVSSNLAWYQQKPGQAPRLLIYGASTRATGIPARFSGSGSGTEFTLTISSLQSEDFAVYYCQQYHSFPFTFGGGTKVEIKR | Donor 4 Max IFNγ | 4030 |
| B7-H4 antibody 20506 (antibody, V domains shown, human IgG1/kappa) VH: QLQLQESGPGLVKPSETLSLTCTASGGSISHGGYYWSWIRQHPGKGLEWIGNIYYSGSTYYNPSLKSRVTMSVDTSKNQFSLKLSSVTAADTAVYYCARESSTISADFDLWGRGTLVTVSS VL: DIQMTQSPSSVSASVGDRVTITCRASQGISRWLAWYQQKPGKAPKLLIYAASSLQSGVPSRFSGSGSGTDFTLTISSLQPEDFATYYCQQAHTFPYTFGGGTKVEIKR | Donor 4 Max IFNγ | 2300 |

Turning to the following binder.
Donor 4 Max IFNγ recorded for this binder, B7-H4 antibody 20501 (antibody, human IgG1, kappa, V domains shown, human IgG1/kappa) VH: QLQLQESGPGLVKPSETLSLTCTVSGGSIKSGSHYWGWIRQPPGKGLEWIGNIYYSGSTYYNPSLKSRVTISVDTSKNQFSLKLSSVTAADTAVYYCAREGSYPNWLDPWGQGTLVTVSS VL: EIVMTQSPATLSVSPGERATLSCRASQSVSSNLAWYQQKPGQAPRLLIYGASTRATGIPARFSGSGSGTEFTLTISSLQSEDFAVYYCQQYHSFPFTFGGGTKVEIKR , is 4490
